B1: 2M8U (parent)
chain: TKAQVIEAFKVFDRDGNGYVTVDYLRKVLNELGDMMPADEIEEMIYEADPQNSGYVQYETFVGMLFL

# Variants of: B1
# EXPERIMENT_NOTES: folding stability dG (cDNA display proteolysis); higher = more stable
# REPORTED_CONDITIONS: PBS, room temperature
QUANTITY_NAME: folding stability dG (kcal/mol)

{"columns": ["MUTATION", "QUANTITY_NAME", "UNIT_TEXT", "NUMBER"],
 "data": [
  ["T1N", "folding stability dG", "kcal/mol", 3.18],
  ["N52V", "folding stability dG", "kcal/mol", 3.26],
  ["L25P", "folding stability dG", "kcal/mol", 1.25],
  ["Q57R", "folding stability dG", "kcal/mol", 3.13],
  ["K10S", "folding stability dG", "kcal/mol", 2.86],
  ["K27D", "folding stability dG", "kcal/mol", 2.89],
  ["G16F", "folding stability dG", "kcal/mol", 2.75],
  ["I6V", "folding stability dG", "kcal/mol", 2.86],
  ["N30Q", "folding stability dG", "kcal/mol", 3.4],
  ["N30H", "folding stability dG", "kcal/mol", 3.52],
  ["M44V", "folding stability dG", "kcal/mol", 3.07],
  ["G16Q", "folding stability dG", "kcal/mol", 3.25],
  ["D13M", "folding stability dG", "kcal/mol", 2.39],
  ["G54P", "folding stability dG", "kcal/mol", 2.26],
  ["D39L", "folding stability dG", "kcal/mol", 3.89],
  ["R26D", "folding stability dG", "kcal/mol", 1.78],
  ["V22I", "folding stability dG", "kcal/mol", 3.48],
  ["M35E", "folding stability dG", "kcal/mol", 2.98],
  ["I6G", "folding stability dG", "kcal/mol", 2.34],
  ["N52W", "folding stability dG", "kcal/mol", 3.1],
  ["E7Q", "folding stability dG", "kcal/mol", 2.96],
  ["G63S", "folding stability dG", "kcal/mol", 3.63],
  ["M35K", "folding stability dG", "kcal/mol", 3.16],
  ["D13Y", "folding stability dG", "kcal/mol", 2.29],
  ["A48M", "folding stability dG", "kcal/mol", 3.28],
  ["E43Q", "folding stability dG", "kcal/mol", 3.9],
  ["V5A", "folding stability dG", "kcal/mol", 2.77],
  ["V62A", "folding stability dG", "kcal/mol", 3.15],
  ["Y46K", "folding stability dG", "kcal/mol", 3.64],
  ["D23T", "folding stability dG", "kcal/mol", 3.65],
  ["G16M", "folding stability dG", "kcal/mol", 3.04],
  ["A3I", "folding stability dG", "kcal/mol", 3.27],
  ["Y58G", "folding stability dG", "kcal/mol", 1.62],
  ["Y46L", "folding stability dG", "kcal/mol", 3.44],
  ["T21R", "folding stability dG", "kcal/mol", 3.74],
  ["E42V", "folding stability dG", "kcal/mol", 3.01],
  ["V20K", "folding stability dG", "kcal/mol", 1.46],
  ["V62P", "folding stability dG", "kcal/mol", 1.22],
  ["E31R", "folding stability dG", "kcal/mol", 3.51],
  ["D23Q", "folding stability dG", "kcal/mol", 3.65],
  ["D15S", "folding stability dG", "kcal/mol", 2.84],
  ["G33S", "folding stability dG", "kcal/mol", 3.28],
  ["L25R", "folding stability dG", "kcal/mol", 2.26],
  ["T60M", "folding stability dG", "kcal/mol", 3.44],
  ["T21M", "folding stability dG", "kcal/mol", 3.4],
  ["Y46H", "folding stability dG", "kcal/mol", 3.62]
]}
